Data credit: the Deep4Chem optical property database

assay: solvent given as SMILES; conditions: in CS(C)=O
Response field label: string, one of 1 (fluorescence lifetime strictly below 2 ns) or 0.

A selection of reference data follows.
{"columns": ["COMPOUND", "LABEL VALUE"],
 "data": [
  ["CCN1\\C(=C/C=C/C=C/C2=[N+](CC)c3ccc4cc(Br)ccc4c3C2(C)C)C(C)(C)c2c1ccc1cc(Br)ccc21", 1],
  ["CN(C)c1ccc(C#Cc2ccccc2)cc1", 1],
  ["COc1ccc(C#Cc2ccc(-c3nn[nH]n3)cc2)cc1OC", 1],
  ["NNC(=O)NNN1C(=O)c2cc(S(=O)(=O)[O-])cc3c(N)c(S(=O)(=O)[O-])cc(c23)C1=O", 0],
  ["C(=C\\N1CCCC1)/c1nc2ccccc2nc1-c1ccccc1", 0]
]}

Dear colleague, could you confirm whether fluorescence lifetime of COc1ccc(C#Cc2ccc(C#N)cc2)cc1 falls below 2 ns? Thanks.
1

Dear colleague, could you confirm whether fluorescence lifetime of CCCCCn1c2ccc(S(=O)(=O)O)cc2c(=O)c2cc(S(=O)(=O)O)ccc21 falls below 2 ns? Thanks.
0

Dear colleague, could you confirm whether fluorescence lifetime of O=C1c2ccc3c4ccc5c6c(ccc(c7ccc(c2c37)C(=O)N1c1ccncc1)c64)C(=O)N(c1ccncc1)C5=O falls below 2 ns? Thanks.
1

Dear colleague, could you confirm whether fluorescence lifetime of CN(C)c1ccc(/C=C2\CC/C(=C\c3ccc(C#N)cc3)C2=O)cc1 falls below 2 ns? Thanks.
1

Dear colleague, could you confirm whether fluorescence lifetime of Cn1c2ccc(S(=O)(=O)O)cc2c(=O)c2cc(S(=O)(=O)O)ccc21 falls below 2 ns? Thanks.
0
